Experiment: Single-dose toxicokinetic and tolerability study of prodrugs in dogs
Format: in vivo, dog
Conditions: female, dog, plasma, po, 25 mg/kg, dog 2201F, day 1, Ibb 25 mg/kg QD dry-filled capsules
outcome.measure: AUC(0-inf)

Query string: Report AUC(0-inf) for O=C(C(=O)N1CCN(C(=O)c2ccccc2)CC1)c1c[nH]c2c(-n3ccnn3)ncc(F)c12 please.
Result string: 136 µM·h

###

Test: Single dose study of Compound IVa in healthy human volunteers (capsule/solution, fasted/fed; first-in-human)
Assay type: in vivo
Conditions: human, plasma, oral, 1800 mg, Fasting, n = 6
outcome.measure: Cmax (µM)
Write the number in µM without appending the unit.

Query string: Report Cmax for COc1ncc(OC)c2c(C(=O)C(=O)N3CCN(C(=O)c4ccccc4)CC3)c[nH]c12 please.
Result string: 3.3

###

Assay: Single-dose toxicokinetic and tolerability study of prodrugs in dogs
Format: in vivo, dog
Settings: male, dog, plasma, po, 250 mg/kg, dog 4101M, day 1, Ibb 250 mg/kg QD dry-filled capsules; emesis
Method: A multi-phase study was conducted to evaluate the tolerability of the prodrug, Iab (monolysine salt) at dosages of 24, 90, or 240 mg/kg (free acid, molar equivalent to 19, 71, or 190 mg/kg of parent IVa, respectively) and the toxicokinetics of lab and IVa (4). Iab was administered to two female dogs/group once daily either as an aqueous solution (24 or 90 mg/kg) or dry-filled capsules (24, 90 [once and twice daily] or 240 mg/kg). […]
outcome.measure: AUC(0-inf) (µM·h)
Write the number in µM·h without appending the unit.

Query string: Report AUC(0-inf) for O=C(C(=O)N1CCN(C(=O)c2ccccc2)CC1)c1c[nH]c2c(-n3ccnn3)ncc(F)c12 please.
Result string: 334

###

Experiment: Single-dose oral toxicokinetic study of prodrugs in rats
Type: in vivo, rat
Conditions: male, Sprague Dawley, rat, plasma, po, 64 mg/kg; read-out: T1/2 (converted)
half-life values by entry

| smiles.representation | data.value |
| --- | --- |
| O=C(C(=O)N1CCN(C(=O)c2ccccc2)CC1)c1c[nH]c2c(-n3ccnn3)ncc(F)c12 | 2.1 h |

Query string: Report half-life for O=C(C(=O)N1CCN(C(=O)c2ccccc2)CC1)c1cn(COP(=O)(O)O)c2c(-n3ccnn3)ncc(F)c12 please.
Result string: 4.6 h

###

Experiment: IV and PO pharmacokinetic studies of prodrug salts (Iab, Ibb, Icb) in the dog, with historical parent data
Type: in vivo, beagle dogs
Conditions: male, beagle, in vivo, iv, 1.28 mg/kg
outcome.measure: clearance (mL/min/kg)
Write the number in mL/min/kg without appending the unit.

Query string: Report clearance for COc1cnc(-n2cnc(C)n2)c2c1c(C(=O)C(=O)N1CCN(C(=O)c3ccccc3)CC1)cn2COP(=O)(O)O [Icb] please.
Result string: 64

###

MRT values by entry
Assay: IV and PO pharmacokinetic studies of prodrug salts (Iab, Ibb, Icb) in the dog, with historical parent data
Type: in vivo, beagle dogs
Details: plasma, iv, 1 mg/kg, read-out: MRT
Write the number in h without appending the unit.

| smiles.representation | data.value |
| --- | --- |
| O=C(C(=O)N1CCN(C(=O)c2ccccc2)CC1)c1c[nH]c2c(-n3ccnn3)ncc(F)c12 | 1.8 |

Now for a further compound.
Query string: Report MRT for COc1cnc(-n2cnc(C)n2)c2[nH]cc(C(=O)C(=O)N3CCN(C(=O)c4ccccc4)CC3)c12 please.
Result string: 6.3
